Biological target: PRMT5/MEP50 (Homo sapiens, UniProt O14744)
Assay: MTase-Glo methyl transferase assay, Method A (Histone H4 peptide, 1 µM MTA, 24 h pre-incubation)
Format: biochemical
Design: made in house
Conditions: read-out: PRMT5 MTase Glo Ki (nM, Meth. A)
Sequence (O14744 whole entry): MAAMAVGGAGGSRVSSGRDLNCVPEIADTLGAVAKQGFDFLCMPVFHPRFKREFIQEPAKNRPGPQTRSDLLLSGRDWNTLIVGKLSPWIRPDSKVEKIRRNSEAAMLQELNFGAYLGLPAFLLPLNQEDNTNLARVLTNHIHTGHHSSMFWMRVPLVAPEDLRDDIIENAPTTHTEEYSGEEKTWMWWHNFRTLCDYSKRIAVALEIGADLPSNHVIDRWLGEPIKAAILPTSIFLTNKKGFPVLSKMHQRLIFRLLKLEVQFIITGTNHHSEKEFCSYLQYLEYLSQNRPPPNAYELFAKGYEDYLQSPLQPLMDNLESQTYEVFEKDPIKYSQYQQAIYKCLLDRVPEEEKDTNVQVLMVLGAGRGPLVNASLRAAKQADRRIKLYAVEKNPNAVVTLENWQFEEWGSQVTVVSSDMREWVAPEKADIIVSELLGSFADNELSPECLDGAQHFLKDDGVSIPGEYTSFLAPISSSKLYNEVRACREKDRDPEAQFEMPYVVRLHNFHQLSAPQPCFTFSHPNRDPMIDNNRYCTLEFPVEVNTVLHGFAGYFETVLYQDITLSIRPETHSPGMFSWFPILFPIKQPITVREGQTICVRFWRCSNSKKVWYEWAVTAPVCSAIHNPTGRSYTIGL
Sequence (Q9BQA1 whole entry partner): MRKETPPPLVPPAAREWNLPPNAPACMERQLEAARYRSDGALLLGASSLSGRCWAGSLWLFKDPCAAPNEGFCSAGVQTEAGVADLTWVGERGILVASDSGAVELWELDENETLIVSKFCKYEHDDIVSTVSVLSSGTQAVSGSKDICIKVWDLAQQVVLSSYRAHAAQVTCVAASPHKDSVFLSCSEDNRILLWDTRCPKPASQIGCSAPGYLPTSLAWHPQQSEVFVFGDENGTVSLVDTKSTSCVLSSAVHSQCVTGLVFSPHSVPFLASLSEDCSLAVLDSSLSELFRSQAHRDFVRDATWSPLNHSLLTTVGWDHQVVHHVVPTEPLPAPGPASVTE
readout kind: Ki (nM)
Numbers only, in nM.

Here are 6 molecules together with their reported answers.
Cc1cc2cc(C(=O)N(Cc3ccc(C(F)(F)F)cn3)Cc3ncn(C)n3)ccc2nc1N: 0.76
Cc1cc2cc(C(=O)N(Cc3ccc4[nH]ncc4c3)Cc3ccc(C(F)(F)F)cn3)ccc2nc1N: 0.17
Cc1cc2cc(C(=O)N(Cc3ccncc3)Cc3ccc(C(F)(F)F)cn3)ccc2nc1N: 2.72
Cc1cc2cc(C(=O)N(Cc3ccc(C#N)cn3)[C@H](C)c3ncn(C)n3)ccc2nc1N (single isomer, unassigned): 0.1
CO[C@H](CN(Cc1ccc(C(F)(F)F)cn1)C(=O)c1ccc2nc(N)c(C)cc2c1)C(F)(F)F (single isomer, unassigned): 0.06
Cc1cc2cc(C(=O)N(Cc3ccc(C(F)(F)F)nn3)[C@@H]3CCOc4ccc(F)nc43)ccc2nc1N: 0.02

Switching to the query record.
Q: Bench note: what Ki did Cc1cc2cc(C(=O)N(Cc3ccc(C(F)(F)F)cn3)[C@H](C)c3ncn(C)n3)c(F)cc2nc1N (single isomer, unassigned) show?
Ans: 0.19

----------
Tested on: HCT116 WT cells
Assay: HCT116 proliferation assay, WT cells (CellTiter-Glo, 6 days)
Assay type: cell-based
Conditions: Homo sapiens, HCT-116, 144 h, read-out: Prolif_HCT116-WT IC50
readout kind: IC50 (nM)
Answers are plain numbers, in nM.

Here are 8 compounds together with their reported answers.
Cc1cc2cc(C(=O)N(Cc3ccc(C(F)(F)F)cn3)C(C)c3ccnc(F)c3)ccc2nc1N (stereo not drawn): 3820
Cc1cc2nc(N)c(C)cc2cc1C(=O)N(Cc1ccc(C(F)(F)F)cn1)CC(C)C: 7010
Cc1cc2cc(C(=O)N(Cc3ccc(C(F)(F)F)cn3)[C@@H]3CCC[C@H]3O)ccc2nc1N: 2460
Cc1cc2cc(C(=O)N(Cc3ccc(C(F)(F)F)cn3)CC(C)C)ccc2nc1N: 5300
Cc1cc2cc(C(=O)N(Cc3ccc(C(F)(F)F)cn3)Cc3ccnc4[nH]ccc34)ccc2nc1N: 801
Cc1cc2cc(C(=O)N(Cc3ccc(C(F)F)cn3)[C@@H]3CCC[C@H]3O)ccc2nc1N: 6200
Cc1cc2cc(C(=O)N(Cc3ccc(C#N)cn3)[C@H](C)c3ncccn3)ccc2nc1N: 3260
CO[C@@H]1CCOC[C@H]1N(Cc1ccc(C(F)(F)F)cn1)C(=O)c1ccc2nc(N)c(C)cc2c1 (single isomer, unassigned) [Example 782]: 460

Dear colleague, could you send me IC50 for each of the items below? Thanks.
1. [2H]C([2H])([2H])c1cc2cc(C(=O)N(Cc3ccc(C(F)(F)F)cn3)[C@H](C)c3ncccc3F)ccc2nc1N
2. Cc1cc2cc(C(=O)N(Cc3ccc(C4=CCOCC4)nn3)[C@H](C)c3ncccn3)ccc2nc1N
3. Cc1cc2cc(C(=O)N(Cc3ccc(C(F)(F)F)cn3)C3CCc4c(O)cccc43)ccc2nc1N (stereo not drawn)

Ans:
[690, 720, 440]

----------
Kindly state Ki for each of the entries shown.
Biological target: PRMT5/MEP50 (Homo sapiens)
Test: MTase-Glo methyl transferase assay, Method B (FL-Histone H2A, 1 µM MTA, 1 h pre-incubation)
Type: biochemical
Parameters: purchased Reaction Biology Corp RD-11-292
Conditions: read-out: PRMT5 MTase Glo Ki (nM, Meth. B)
Sequence (O14744 2-637 limits assumed): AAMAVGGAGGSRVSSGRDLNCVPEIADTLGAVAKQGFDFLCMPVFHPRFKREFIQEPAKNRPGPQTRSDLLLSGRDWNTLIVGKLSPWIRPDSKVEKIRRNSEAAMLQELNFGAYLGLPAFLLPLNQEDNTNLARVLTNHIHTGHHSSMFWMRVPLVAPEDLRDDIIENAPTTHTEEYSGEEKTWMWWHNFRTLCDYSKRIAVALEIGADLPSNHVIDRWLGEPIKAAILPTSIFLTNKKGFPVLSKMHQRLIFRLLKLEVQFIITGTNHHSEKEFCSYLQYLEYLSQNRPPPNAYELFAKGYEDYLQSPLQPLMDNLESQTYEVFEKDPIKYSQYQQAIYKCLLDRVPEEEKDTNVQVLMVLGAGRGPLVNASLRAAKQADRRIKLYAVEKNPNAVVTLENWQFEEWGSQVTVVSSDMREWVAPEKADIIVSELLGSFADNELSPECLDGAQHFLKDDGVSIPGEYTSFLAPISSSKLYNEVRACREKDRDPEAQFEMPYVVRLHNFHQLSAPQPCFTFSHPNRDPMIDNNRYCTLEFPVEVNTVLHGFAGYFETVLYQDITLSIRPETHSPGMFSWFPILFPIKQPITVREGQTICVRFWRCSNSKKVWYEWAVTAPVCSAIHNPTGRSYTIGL
Sequence (Q9BQA1 2-342 partner limits assumed): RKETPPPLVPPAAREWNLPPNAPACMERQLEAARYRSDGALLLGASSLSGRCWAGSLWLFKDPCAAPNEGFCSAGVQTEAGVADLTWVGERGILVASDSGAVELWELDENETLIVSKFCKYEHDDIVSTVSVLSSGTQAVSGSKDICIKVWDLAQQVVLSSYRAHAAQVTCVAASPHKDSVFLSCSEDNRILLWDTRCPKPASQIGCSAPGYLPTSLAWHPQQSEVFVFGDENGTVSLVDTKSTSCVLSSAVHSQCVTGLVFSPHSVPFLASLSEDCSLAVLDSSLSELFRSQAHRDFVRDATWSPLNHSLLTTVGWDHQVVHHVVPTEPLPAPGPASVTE
Please append the unit to your numeric answer.

Cc1cc2cc(C(=O)N(Cc3ccc4ccoc4c3)Cc3ccc(C(F)(F)F)cn3)ccc2nc1N: 1.98 nM

Dear colleague, could you send me Ki for each of the items below? Thanks.
1. Cc1cc2cc(C(=O)N(Cc3ccc(C(F)(F)F)cn3)Cc3c(C)c4ccccc4n3C)ccc2nc1N
2. Cc1cc2cc(C(=O)N(Cc3ccnc4[nH]ccc34)Cc3ccnn3C)ccc2nc1N
3. CCn1ncc2c1CCCC2N(Cc1ccc(C(F)(F)F)cn1)C(=O)c1ccc2nc(N)c(C)cc2c1 (stereo not shown)
4. Cc1cc2cc(C(=O)N(Cc3ccn4ccnc4c3)Cc3ccc(C(F)(F)F)cn3)ccc2nc1N
5. Cc1cc2cc(C(=O)N(Cc3ccc(C(F)(F)F)cn3)C(CC(N)=O)C3CCOCC3)ccc2nc1N (stereo not shown)

Ans:
1: 15.4 nM; 2: 1.56 nM; 3: 5.32 nM; 4: 3.97 nM; 5: 23 nM

Dear colleague, could you send me Ki for each of the items below? Thanks.
1. Cc1cc2cc(C(=O)N(Cc3ccc(C(F)(F)F)cn3)C3CC(C)(C)c4ccccc43)ccc2nc1N (stereo not shown)
2. Cc1cc2cc(C(=O)N(Cc3ccc(C(F)(F)F)cn3)Cc3ccnc4[nH]ccc34)cnc2nc1N
3. Cc1cc2cc(C(=O)N(Cc3ccc(C(F)(F)F)cn3)Cc3cocn3)ccc2nc1N

Ans:
1: 26 nM; 2: 1.29 nM; 3: 2.24 nM

Dear colleague, could you send me Ki for each of the items below? Thanks.
1. Cc1cc2cc(C(=O)N(Cc3ccc(C(F)(F)F)cn3)C3CCC4CCCC4C3)ccc2nc1N (stereo not shown)
2. Cc1cc2cc(C(=O)N(Cc3ccc(C(F)(F)F)cn3)C(C)CC3CC3)ccc2nc1N (stereo not shown)
3. Cc1cc2cc(C(=O)N(Cc3ccc(N4CCC(C(N)=O)CC4)cc3)Cc3scnc3C)ccc2nc1N
4. Cc1cc2cc(C(=O)N(Cc3ccc(C(F)(F)F)cn3)Cc3ccc4cc[nH]c4n3)ccc2nc1N

Ans:
1. 8.5 nM
2. 2.19 nM
3. 3.48 nM
4. 1.62 nM

Dear colleague, could you send me Ki for each of the items below? Thanks.
1. Cc1cc2cc(C(=O)N(Cc3ccc(C(F)(F)F)cn3)C[C@H]3CC[C@H](O)CC3)ccc2nc1N
2. Cc1cc2cc(C(=O)N(Cc3ccc(C(F)(F)F)cn3)C(C)C3CCCO3)ccc2nc1N (stereo not shown)
3. Cc1cc(N)nc2ccc(C(=O)N(Cc3ccc(C(F)(F)F)cn3)Cc3ncn(C)n3)cc12

Ans:
["3.88 nM", "5.3 nM", "4.13 nM"]
